# Tested on: Plasmodium falciparum
# protocolDescription: GSK_TCMDC: Inhibition of Plasmodium falciparum Dd2 in whole red blood cells, using parasite LDH activity as an index of growth. Test compounds present at 2uM
# Type: functional
Cut-off 40% on Inhibition: below means YES, at or above means NO.

Take a look at these entries with their results.
compound	discreteLabel
CC(C)(C)OC(=O)NCc1ccc(Nc2nnc(-c3cccc(C(=O)NCCC(c4ccccc4)c4ccccc4)c3)o2)cc1	NO
Brc1ccc(C=NNc2nc3ccccc3[nH]2)cc1	NO
Cc1cc(C2CCN(CCCCNC(=O)c3ccc(-c4ccc(C#N)cc4)cc3)CC2)c(C)cc1OCCO	NO
COc1ccc(CCCN2C(=O)C(c3ccccc3)(c3ccccc3)N=C2N)cc1.O=C(O)C(F)(F)F	NO
O=S(=O)(Nc1cccc(CCN2CCC(N3CCCCC3)CC2)c1)c1cccc(C(F)(F)F)c1	YES
CCOC(=O)c1cc(C(=O)NCCCCN2CCC(c3ccc4c(c3OC)CCCC4)CC2)ccc1-c1ccc(C(F)(F)F)cc1	NO
CCN(CCCN1CCCCC1)c1cc(C)nc(Nc2ccc(F)c(C(F)(F)F)c2)n1.O=C(O)C(F)(F)F	NO
O=C(/C=C/c1ccc(Cl)c(Cl)c1)NCCCCCCN1CCCN(C(=O)Nc2ccc(Cl)c(C(F)(F)F)c2)CC1	YES
Cc1cc(C)c(C(=O)Nc2n[nH]c3nnc(-c4cccc(F)c4F)cc23)c(C)c1	YES
Cc1ccc2c(c1)c(C1CCN(C(=O)c3ccc([N+](=O)[O-])o3)CC1)cn2C	NO

Q: Consider `CCCN(CCC)C(=O)c1cc(C(=O)N[C@@H](Cc2ccccc2)[C@H](O)CNC2CC2)cc(N2CCCCS2(=O)=O)c1` . Does its Inhibition lie strictly below 40%?
Ans: NO

Q: Threshold test, Inhibition < 40%: COC(=O)C(C)NCC(=O)c1ccccc1.Cl (stereo not given)
Ans: YES

Q: Report whether reported Inhibition is lower than 40% (strictly) for `Cc1nc2nc(N)nc(N)c2c(C)c1Cc1ccc([N+](=O)[O-])cc1.Cl`
Ans: YES

Q: Item CC(c1cccc(Nc2nccc(-c3c(-c4cccc(NC(=O)c5c(F)cccc5F)c4)nn4ncccc34)n2)c1)S(C)(=O)=O (stereo not given) : Inhibition beneath 40%, strictly?
Ans: NO

Q: For this compound, is Inhibition lower than 40%? `CN(C)CCNc1cc(-c2cccnc2)nc(-c2ccncc2)n1`
Ans: NO

Q: A record lists `Cc1cccc2nc(-c3ccc(-c4cccc(CNC5CCN(C)CC5)c4)s3)[nH]c12.O=C(O)C(F)(F)F` . Is its Inhibition below 40%?
Ans: NO

Q: Given the entry `Cc1ccc(Cn2ncc(N3CCCNCC3)c(Cl)c2=O)cc1NC(=O)Nc1ccc(-c2ccccc2)cc1` , would its reported Inhibition be below 40%?
Ans: YES

Q: Field: below-cutoff. Rule: recorded Inhibition strictly less than 40%. Subject: CCCc1ccc(S(=O)(=O)NC2CCN(c3ccnc(Nc4ccc(OC)cc4)n3)C2)cc1 (stereo not given)
Ans: NO

Q: Record `COc1ccc2ncc(C#N)c(CCN3CCC(NCc4ccc5c(c4)OCCO5)CC3)c2c1.Cl` : is its Inhibition strictly below 40%?
Ans: YES

Q: Hello, is Inhibition of the following compound strictly smaller than 40%? `CN(c1ccc2c(c1)nc(NC(=O)C1(c3cc(F)ccc3F)CC1)n2C)c1ccnc(Nc2cccc(CS(C)(=O)=O)c2)n1.O=C(O)C(F)(F)F`
Ans: NO

Q: Dear reviewer, please state whether `CN1CCN(c2cc3c(cc2Br)CCN3C(=O)Nc2ccc(-c3cnc4ccccc4c3)cc2)CC1` has Inhibition strictly beneath 40%.
Ans: NO

Q: Hello, I'm reviewing records and need to know if Inhibition of `Fc1cccc(COc2ccc(Nc3ncnc4sc(C#Cc5ncc[nH]5)cc34)cc2Cl)c1` is below 40%. Could you check?
Ans: NO

Q: For this compound, is Inhibition lower than 40%? `Cn1nccc1C(=O)NCCNCc1ccc(-c2ccc(-c3nc4cc(F)ccc4[nH]3)cc2)cc1.O=C(O)C(F)(F)F`
Ans: NO

Q: Criterion: Inhibition strictly below 40%. Is it met by `COc1cc(C2=NN(S(=O)(=O)c3c(Cl)cc(Cl)cc3Cl)CCCC2)ccc1Cl` ?
Ans: NO

Q: Hi there! Is Inhibition for `COc1cc(OC)c2c(C)cc(NCCCN3CCOCC3)nc2c1` below 40%, do you know?
Ans: YES
